- tested target: NLRP3 (Homo sapiens)
- Construct: Seed THP-1 cells (25,000 cells/well) containing 1.0 μg/ml LPS in 40 μl of RPMI medium
- Sequence (Q96P20 whole entry): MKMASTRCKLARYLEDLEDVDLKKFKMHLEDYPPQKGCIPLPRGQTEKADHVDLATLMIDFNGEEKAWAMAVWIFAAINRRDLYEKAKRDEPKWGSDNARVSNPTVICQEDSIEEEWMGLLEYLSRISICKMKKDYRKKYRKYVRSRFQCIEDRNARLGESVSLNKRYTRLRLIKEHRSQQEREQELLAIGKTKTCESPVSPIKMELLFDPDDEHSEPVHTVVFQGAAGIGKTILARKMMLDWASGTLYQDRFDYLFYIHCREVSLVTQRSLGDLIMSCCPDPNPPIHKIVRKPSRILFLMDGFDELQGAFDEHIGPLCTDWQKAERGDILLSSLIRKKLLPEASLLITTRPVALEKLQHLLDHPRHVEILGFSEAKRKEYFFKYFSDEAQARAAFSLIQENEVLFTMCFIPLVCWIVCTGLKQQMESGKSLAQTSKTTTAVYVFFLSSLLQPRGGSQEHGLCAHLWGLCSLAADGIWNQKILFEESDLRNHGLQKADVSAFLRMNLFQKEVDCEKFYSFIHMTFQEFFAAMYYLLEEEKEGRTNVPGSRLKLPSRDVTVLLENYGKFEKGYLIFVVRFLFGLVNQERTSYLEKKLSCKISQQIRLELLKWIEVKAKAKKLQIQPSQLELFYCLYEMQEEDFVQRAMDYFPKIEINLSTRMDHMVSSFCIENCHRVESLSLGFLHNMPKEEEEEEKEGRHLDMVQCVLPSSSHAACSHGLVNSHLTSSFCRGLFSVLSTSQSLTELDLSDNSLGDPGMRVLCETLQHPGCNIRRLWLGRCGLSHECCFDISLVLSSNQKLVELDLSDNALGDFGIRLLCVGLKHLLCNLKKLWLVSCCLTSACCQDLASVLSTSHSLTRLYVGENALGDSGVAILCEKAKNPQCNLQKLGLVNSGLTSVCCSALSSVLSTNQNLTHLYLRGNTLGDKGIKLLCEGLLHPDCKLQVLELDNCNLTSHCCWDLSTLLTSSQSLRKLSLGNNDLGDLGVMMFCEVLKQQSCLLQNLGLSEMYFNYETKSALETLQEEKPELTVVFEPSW
- protocol description: THP-1 cells pyroptosis assay
- experimental conditions: LPS 1 μg/ml, compound 3 hrs, nigericin 5 μM 1 hr, resazurin readout
pIC50: −log10 of the molar value. Where a name gives a salt, the structure may show the parent alone.
experimental readout: pIC50

1) CC(C)c1cc(F)cc(-c2cccnc2)c1CC(=O)NS(=O)(=O)c1ncc(C(C)(C)O)s1 [Example 143]: ≥ 6.00
2) COc1cc(-c2ccc3c(c2CC(=O)NS(=O)(=O)c2cc(C(C)C)c(F)cc2F)CCC3)ccn1 [Example 204]: ≥ 5.30
3) COc1cc(-c2cc(F)cc(C(C)C)c2CC(=O)NS(=O)(=O)c2ccc(C(C)C)cc2C)ccn1 [Example 157]: ≥ 6.30
4) COc1cc(-c2cc(F)cc(C(C)C)c2CC(=O)NS(=O)(=O)c2nnc(NC(C)=O)s2)ccn1 [Example 138]: ≥ 5.00
5) COc1cc(-c2cc(F)cc(C(C)C)c2CC(=O)NS(=O)(=O)c2cnn(C)c2)ccn1 [Example 42]: ≥ 5.00
6) COc1cc(-c2cc(F)cc(C(C)C)c2CC(=O)NS(=O)(=O)c2cccc(CNC(C)=O)c2)ccn1 [Example 133]: ≥ 5.30
7) COc1cc(-c2ccc3c(c2CC(=O)NS(=O)(=O)N(C)C2CCN(C)C2)CCC3)ccn1 (stereo not drawn) [Example 55, potassium salt]: ≥ 5.30
8) COc1cc(-c2cc(F)cc(C(C)C)c2CC(=O)NS(=O)(=O)c2ccc(C)cc2F)ccn1 [Example 120]: ≥ 6.00
9) Cc1cc(C(C)(C)O)ccc1S(=O)(=O)NC(=O)Cc1c(-c2cccnc2)cc(F)cc1C(C)C [Example 82]: ≥ 5.30
10) COc1cc(-c2cc(F)cc(C(C)C)c2CC(=O)NS(=O)(=O)c2ccc(Cl)cc2Cl)ccn1 [Example 13]: ≥ 6.00
11) COc1cc(-c2cc(F)cc(C(C)(C)F)c2CC(=O)NS(=O)(=O)c2cc(C(C)(C)O)cs2)ccn1 [Example 87]: ≥ 6.30
12) COc1cc(-c2cc(F)cc(C(C)C)c2CC(=O)NS(=O)(=O)c2c(Cl)cc(N(C)C)cc2Cl)ccn1 [Example 161]: ≥ 5.30
13) COc1cc(-c2cc(F)cc(C(C)C)c2CC(=O)NS(=O)(=O)c2ccc(-c3cnco3)s2)ccn1 [Example 127]: ≥ 5.30
14) CC(C)c1cc(F)cc(-c2ccncc2)c1CC(=O)NS(=O)(=O)c1ccc(CN(C)C)cc1 [Example 36]: ≥ 5.30
15) COCC(C)(C)n1ccc(S(=O)(=O)NC(=O)Cc2c(-c3ccnc(OC)c3)cc(F)cc2C(C)C)n1 [Example 194]: ≥ 5.30
16) CC(C)c1cc(F)cc(-c2ccncc2)c1CC(=O)NS(=O)(=O)c1cc(CN(C)C)n(C)n1 [Example 73]: ≥ 5.30
17) COC(=O)c1cc(S(=O)(=O)NC(=O)Cc2c(-c3ccnc(OC)c3)cc(F)cc2C(C)C)ccc1F [Example 92]: ≥ 5.30
18) COc1cc(-c2cc(F)cc(C(C)C)c2CC(=O)NS(=O)(=O)c2ccc(F)c(C(C)(C)O)c2)ccn1 [Example 79]: ≥ 6.00
19) COc1cc(-c2cc(F)cc(C(C)C)c2CC(=O)NS(=O)(=O)c2ccc(C(C)(C)N)c(F)c2)ccn1 [Example 83]: ≥ 5.30
20) COc1cc(-c2cc(F)cc(C(C)C)c2CC(=O)NS(=O)(=O)c2ccc(Cl)c(F)c2)ccn1 [Example 135]: ≥ 5.30
21) COc1cc(-c2cc(F)cc(C(C)C)c2CC(=O)NS(=O)(=O)c2cccc(CN(C)C)c2)ccn1 [Example 180]: ≥ 5.30
22) COc1cc(-c2cc(F)cc(C(C)C)c2CC(=O)NS(=O)(=O)c2ccc(C(C)(C)NC(C)=O)c(F)c2)ccn1 [Example 88]: ≥ 5.30
23) COc1cc(-c2cc(F)cc(C(C)C)c2CC(=O)NS(=O)(=O)c2c(C)nn(CC(F)(F)F)c2C)ccn1 [Example 168]: ≥ 5.30
24) COc1cc(-c2cc(F)cc(C(C)C)c2CC(=O)NS(=O)(=O)c2cc(C(C)(C)OC)cs2)ccn1 [Example 144]: ≥ 6.30
25) COc1cc(-c2cc(F)cc(C(C)C)c2CC(=O)NS(=O)(=O)c2cncc(C(C)(C)O)c2)ccn1 [Example 198]: ≥ 6.30
26) COc1cc(-c2cc(F)cc(C(C)C)c2CC(=O)NS(=O)(=O)c2ccc(C3CC3)cc2C)ccn1 [Example 151]: ≥ 6.30
27) COc1cc(-c2cc(F)cc(C(C)C)c2CC(=O)NS(=O)(=O)c2ccn(C(C)(C)CN(C)C)n2)ccn1 [Example 192]: ≥ 5.30
28) COc1cc(-c2cc(F)cc(C(C)C)c2CC(=O)NS(=O)(=O)c2cn(C)c(=O)n(C)c2=O)ccn1 [Example 3]: ≥ 6.00
29) COc1cc(-c2cc(F)cc(C(C)C)c2CC(=O)NS(=O)(=O)N(C)C2CCN(C)C2)ccn1 (stereo not drawn) [Example 76]: ≥ 5.30
30) COc1cc(-c2cc(F)cc(C(C)C)c2CC(=O)NS(=O)(=O)c2ccc(F)c(C#N)c2)ccn1 [Example 34]: ≥ 5.00
